# key: entry, value: gcPBM binding intensity (ln)
tested on: PfAP2-LT AP2 domain (GST-tagged); test: gcPBM binding intensity (ln(normalized median fluorescence intensity)); higher = stronger DNA binding
The full ranking holds about 25,000 sequences; the median of “ln(normalized median fluorescence intensity)” is about 8.9, and the highest 2% start at about 10. The sample as a whole holds a higher share of the highest values than the screen did.
Just the number, please, no unit attached.

Use these answered entries as a reference point.
INSERT INTO assay_data (primary_sequence, reading) VALUES
  ('ATTATGCTACAAGGAGAACACACAATTGCCACTTTT [CACACA_site8673]', 9.1),
  ('TGCCCTTTGGTTATAACACACATGCACACGTAAATA [CACACA_site7750]', 9.4),
  ('AGCACAAGCACAAGCACACATTTATATATAAATACA [CACACA_site4642]', 9.1),
  ('AATGAAAAGGAACATACACACCCCATATAAATATAT [CACACA_site7588]', 9.62),
  ('TATAAAAGGAAACACACACACATATATATATATATA [CACACA_site939]', 10.2);

Looking up AAAAAAAATAAACACACACACATACCCATAAATATA [CACACA_site5980] , I see its gcPBM binding intensity (ln) listed as 10

Looking up AGGAAAAAAGAAAAAACACACATAAATATATATATA [CACACA_site3085] , I see its gcPBM binding intensity (ln) listed as 9.11

* * *

tested on: PfAP2-LT AP2 domain (GST-tagged); assay: gcPBM binding intensity (ln(normalized median fluorescence intensity)); higher = stronger DNA binding
In all, about 25,000 sequences were measured (“ln(normalized median fluorescence intensity)”: median about 8.9, highest 2% from about 10 on). The entries come from a sample that favours the highest values as a whole.
assay.metric: gcPBM binding intensity (ln)
Just the number, please, no unit attached.

Here AAATAAAACAAACACACACACACATACACAAAAAAA [CACACA_site3849] was tested on PfAP2-LT AP2 domain (GST-tagged), and its gcPBM binding intensity (ln) came to 10.1

Here TATAACATAAAACACACACACATACATACACAAAAA [CACACA_site1804] was tested on PfAP2-LT AP2 domain (GST-tagged), and its gcPBM binding intensity (ln) came to 10.1

Here CACATACAGACATACACACACATATATATTAATATA [CACACA_site546] was tested on PfAP2-LT AP2 domain (GST-tagged), and its gcPBM binding intensity (ln) came to 9.56

Here TACCAAAAGAAACACACACACAAAATATATAAATAT [CACACA_site1869] was tested on PfAP2-LT AP2 domain (GST-tagged), and its gcPBM binding intensity (ln) came to 9.88

Here AAAAAAAGAAAAAAAACACACACAAATATAAATAAA [CACACA_site8309] was tested on PfAP2-LT AP2 domain (GST-tagged), and its gcPBM binding intensity (ln) came to 9.46

Here GAATAATATGGACATACACACATATACATACATATA [CACACA_site2114] was tested on PfAP2-LT AP2 domain (GST-tagged), and its gcPBM binding intensity (ln) came to 9.27

Here CACCCATAGAAACACACACACGCATAAAAAAAAAAA [CACACA_site1513] was tested on PfAP2-LT AP2 domain (GST-tagged), and its gcPBM binding intensity (ln) came to 9.56

Here AATAAACATAAATACACACACAAAAAAAAAAACATA [CACACA_site4396] was tested on PfAP2-LT AP2 domain (GST-tagged), and its gcPBM binding intensity (ln) came to 9.64

Here TTTAAATATTTTATAGCATGCTACCAATATGTATAT [TGCATGCA_site291] was tested on PfAP2-LT AP2 domain (GST-tagged), and its gcPBM binding intensity (ln) came to 8.83

Here CACAAAAATAAACACACACACATATATATATATATA [CACACA_site4704] was tested on PfAP2-LT AP2 domain (GST-tagged), and its gcPBM binding intensity (ln) came to 10.2

Here ATATATATAAAACACACACACAAAAAAAATAAAGAC [CACACA_site117] was tested on PfAP2-LT AP2 domain (GST-tagged), and its gcPBM binding intensity (ln) came to 10.1

Here TACACAAAAATAAACACACACACATATAAATAAATA [CACACA_site6599] was tested on PfAP2-LT AP2 domain (GST-tagged), and its gcPBM binding intensity (ln) came to 9.76

* * *

system: PfAP2-LT AP2 domain (GST-tagged); experiment: gcPBM binding intensity (ln(normalized median fluorescence intensity)); higher = stronger DNA binding
Whole data set: some 25,000 sequences, median “ln(normalized median fluorescence intensity)” near 8.9, cut for the highest 2% near 10. The sample as a whole holds a higher share of the highest values than the screen did.
assay.metric: gcPBM binding intensity (ln)
Just the number, please, no unit attached.

Use these answered entries as a reference point.
INSERT INTO results (primary_sequence, assay_metric, reading) VALUES
  ('AAATAACACATATATACACACATATAAATATAATAT [CACACA_site2692]', 'gcPBM binding intensity (ln)', 9.29),
  ('AAGGATATAACATACACACACACACGGATATAAATA [CACACA_site7867]', 'gcPBM binding intensity (ln)', 10.2),
  ('CACTAAAATAGACACACACACACACGGATATAAATA [CACACA_site7873]', 'gcPBM binding intensity (ln)', 10.3),
  ('AATATAAGGATATATACACACATAAATACATACATA [CACACA_site7859]', 'gcPBM binding intensity (ln)', 9.25);

Please look at the following sequence next.
Looking up ATAAGAAAAGGACACACACACAAAAAAAAAAAAAAA [CACACA_site7351] , I see its gcPBM binding intensity (ln) listed as 9.48

* * *

tested on: PfAP2-LT AP2 domain (GST-tagged); assay: gcPBM binding intensity (ln(normalized median fluorescence intensity)); higher = stronger DNA binding
Over roughly 25,000 sequences, “ln(normalized median fluorescence intensity)” has its median near 8.9; the highest 2% begin near 10. This is one part of a sample in which the highest values are shown more often than they occur.
assay.metric: gcPBM binding intensity (ln)
Just the number, please, no unit attached.

Use these answered entries as a reference point.
INSERT INTO assay_data (primary_sequence, assay_metric, reading) VALUES
  ('AAAAAAAACGGACACACACACATACAAAATATATAT [CACACA_site4910]', 'gcPBM binding intensity (ln)', 9.99),
  ('AAAAGGAACAGACACACACACATATATAAATATGTA [CACACA_site7656]', 'gcPBM binding intensity (ln)', 9.8),
  ('AAAACAAACGGACACACACACATATATATATATATA [CACACA_site5924]', 'gcPBM binding intensity (ln)', 10.2);

Please look at the following sequence next.
Looking up AAGCTTTCATAAAGATGTACTTTTTAAAAATAATCT [XGTACX_site5725] , I see its gcPBM binding intensity (ln) listed as 8.28

* * *

system: PfAP2-LT AP2 domain (GST-tagged); test: gcPBM binding intensity (ln(normalized median fluorescence intensity)); higher = stronger DNA binding
The full ranking holds about 25,000 sequences; the median of “ln(normalized median fluorescence intensity)” is about 8.9, and the highest 2% start at about 10. The list comes from a sample in which the highest values are over-represented; it also holds close analogues and randomly drawn sequences.
assay.metric: gcPBM binding intensity (ln)

Use these answered entries as a reference point.
INSERT INTO assay_data (primary_sequence, system, reading) VALUES
  ('TCAAACGGTTAAATATGTACATATATATATATATAT [XGTACX_site2339]', 'PfAP2-LT AP2 domain (GST-tagged)', 9.7),
  ('TAAACAGAAGCACATACACACACTCAAAAAAAAAAA [CACACA_site3051]', 'PfAP2-LT AP2 domain (GST-tagged)', 9.53),
  ('AAACAAAAAAATTGAAATAAAATGAAGTAAATGAAC [TGCATGCA_negctrl_site129]', 'PfAP2-LT AP2 domain (GST-tagged)', 8.9),
  ('AAAAAAATGAAACACACACACACATATATATATATA [CACACA_site1043]', 'PfAP2-LT AP2 domain (GST-tagged)', 10.1);

Please look at the following sequence next.
Looking up TTAGAAATTCATTTTACACACAATTCAAAAGAATGT [CACACA_site2104] , I see its gcPBM binding intensity (ln) listed as 8.79
